Values compiled from the supplement of paper PMC11316812.

Test system: MCF7;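 note: secreted proteins added to cultured cells, EdU pulse at the end, nuclei found by Hoechst imaging, EdU status from nuclear versus surrounding ring intensity ratio, PBS as neutral control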
Protocol text: percentage of EdU-negative (G0-arrested) nuclei per well, 72 h; higher = more G0 arrest
Measurement setup: protein concentration 0.225 µM; reference: sequence is the full UniProt precursor, the tested protein was the secreted form or ectodomain
Recorded measurements of percentage of EdU-negative, one per entry
Assay endpoint: percentage of EdU-negative (%)

[[record]]
sequence_code = "MKPVLPLQFLVVFCLALQLVPGSPKQRVLKYILEPPPCISAPENCTHLCTMQEDCEKGFQCCSSFCGIVCSSETFQKRNRIKHKGSEVIMPAN [Q8IUB5]"
reported_measurement = 23.6

[[record]]
sequence_code = "MGVCGYLFLPWKCLVVVSLRLLFLVPTGVPVRSGDATFPKAMDNVTVRQGESATLRCTIDDRVTRVAWLNRSTILYAGNDKWSIDPRVIILVNTPTQYSIMIQNVDVYDEGPYTCSVQTDNHPKTSRVHLIVQVPPQIMNISSDITVNEGSSVTLLCLAIGRPEPTVTWRHLSVKEGQGFVSEDEYLEISDIKRDQSGEYECSALNDVAAPDVRKVKITVNYPPYISKAKNTGVSVGQKGILSCEASAVPMAEFQWFKEETRLATGLDGMRIENKGRMSTLTFFNVSEKDYGNYTCVATNKLGNTNASITLYGPGAVIDGVNSASRALACLWLSGTLLAHFFIKF"
reported_measurement = 23.8

[[record]]
sequence_code = "MVNLAAMVWRRLLRKRWVLALVFGLSLVYFLSSTFKQEERAVRDRNLLQVHDHNQPIPWKVQFNLGNSSRPSNQCRNSIQGKHLITDELGYVCERKDLLVNGCCNVNVPSTKQYCCDGCWPNGCCSAYEYCVSCCLQPNKQLLLERFLNRAAVAFQNLFMAVEDHFELCLAKCRTSSQSVQHENTYRDPIAKYCYGESPPELFPA [Q9H741]"
reported_measurement = 27

[[record]]
sequence_code = "MRWCLLLIWAQGLRQAPLASGMMTGTIETTGNISAEKGGSIILQCHLSSTTAQVTQVNWEQQDQLLAICNADLGWHISPSFKDRVAPGPGLGLTLQSLTVNDTGEYFCIYHTYPDGTYTGRIFLEVLESSVAEHGARFQIPLLGAMAATLVVICTAVIVVVALTRKKKALRIHSVEGDLRRKSAGQEEWSPSAPSPPGSCVQAEAAPAGLCGEQRGEDCAELHDYFNVLSYRSLGNCSFFTETG [Q495A1]"
reported_measurement = 24.1

